Numbers sourced from patent US11021467B2.

This listing pairs compounds with measured pIC50.
measurementTarget: UniProt:P42338
Sequence (P42338 whole entry, canonical isoform): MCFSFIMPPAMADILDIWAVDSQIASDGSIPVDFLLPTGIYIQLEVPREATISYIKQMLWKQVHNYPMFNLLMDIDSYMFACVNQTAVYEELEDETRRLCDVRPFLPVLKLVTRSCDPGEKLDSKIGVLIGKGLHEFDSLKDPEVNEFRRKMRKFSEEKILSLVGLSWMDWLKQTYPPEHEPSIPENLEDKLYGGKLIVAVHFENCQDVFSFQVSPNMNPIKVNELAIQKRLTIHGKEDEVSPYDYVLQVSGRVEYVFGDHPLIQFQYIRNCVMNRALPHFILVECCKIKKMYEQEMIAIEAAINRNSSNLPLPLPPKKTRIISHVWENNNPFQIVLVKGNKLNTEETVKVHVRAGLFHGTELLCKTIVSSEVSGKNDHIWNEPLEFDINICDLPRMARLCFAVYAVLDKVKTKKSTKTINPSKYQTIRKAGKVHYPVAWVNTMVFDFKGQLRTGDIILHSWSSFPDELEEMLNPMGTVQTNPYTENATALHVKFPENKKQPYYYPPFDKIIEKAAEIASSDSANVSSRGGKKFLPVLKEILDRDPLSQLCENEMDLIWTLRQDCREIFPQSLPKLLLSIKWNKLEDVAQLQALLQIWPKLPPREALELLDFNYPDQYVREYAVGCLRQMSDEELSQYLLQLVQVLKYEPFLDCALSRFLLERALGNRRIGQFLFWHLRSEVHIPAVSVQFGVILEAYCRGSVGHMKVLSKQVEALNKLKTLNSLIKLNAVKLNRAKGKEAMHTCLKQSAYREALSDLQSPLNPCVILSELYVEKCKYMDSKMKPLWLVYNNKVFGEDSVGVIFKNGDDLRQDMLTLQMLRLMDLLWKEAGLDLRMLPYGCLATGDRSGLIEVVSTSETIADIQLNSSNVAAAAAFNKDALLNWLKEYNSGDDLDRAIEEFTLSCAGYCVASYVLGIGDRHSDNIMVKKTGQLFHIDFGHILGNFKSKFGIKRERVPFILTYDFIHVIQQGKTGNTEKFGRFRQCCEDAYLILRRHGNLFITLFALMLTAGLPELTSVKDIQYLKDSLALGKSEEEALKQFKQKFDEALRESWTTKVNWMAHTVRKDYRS
Sequence (P27986 whole entry partner, canonical isoform): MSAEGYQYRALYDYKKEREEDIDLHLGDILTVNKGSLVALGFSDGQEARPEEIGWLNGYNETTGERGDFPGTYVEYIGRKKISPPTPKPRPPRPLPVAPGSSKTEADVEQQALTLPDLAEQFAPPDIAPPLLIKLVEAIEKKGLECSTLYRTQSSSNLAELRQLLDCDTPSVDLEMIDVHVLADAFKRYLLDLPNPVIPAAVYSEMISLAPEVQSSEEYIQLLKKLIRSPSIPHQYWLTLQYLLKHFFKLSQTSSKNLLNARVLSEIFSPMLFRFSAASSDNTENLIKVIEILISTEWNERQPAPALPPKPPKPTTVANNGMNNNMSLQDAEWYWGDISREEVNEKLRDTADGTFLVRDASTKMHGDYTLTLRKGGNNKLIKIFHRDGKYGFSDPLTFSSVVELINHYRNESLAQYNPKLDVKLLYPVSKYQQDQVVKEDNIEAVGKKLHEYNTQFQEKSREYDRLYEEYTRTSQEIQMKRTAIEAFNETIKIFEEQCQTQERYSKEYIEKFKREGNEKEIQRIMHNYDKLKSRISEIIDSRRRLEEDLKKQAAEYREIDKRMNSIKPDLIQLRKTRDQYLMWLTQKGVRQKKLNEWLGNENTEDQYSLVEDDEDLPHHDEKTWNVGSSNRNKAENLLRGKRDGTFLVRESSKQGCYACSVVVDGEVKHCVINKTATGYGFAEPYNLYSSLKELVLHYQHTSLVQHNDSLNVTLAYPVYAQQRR
test: TR-FRET enzymatic activity assay against PI3K isoforms
testParameters: PI3Kβ, TR-FRET, 2×Km ATP, 30 minutes at 25° C.
pIC50: −log10 of the molar value.
readoutKind: pIC50

> print(dat)
                                   compound  obsvalue
1  C[C@H](Nc1ncnc(N)c1C#N)c1nc2cccc(Cl)c2c(=O)n1CCN      6.13
2  C[C@H](Nc1ncnc(N)c1C#N)c1nc2cccc(Cl)c2c(=O)n1[C@H]1C[C@@H](O)C1      6.82
3  NCCCn1c([C@@H](Nc2ncnc3[nH]cc(Br)c23)C2CC2)nc2cccc(Cl)c2c1=O      8.15
4  N#Cc1c(N)nc(N)nc1N[C@H](c1nc2c(Cl)cc(F)cc2c(=O)n1[C@H]1C[C@H](O)C1)C1CC1      7.24
5  CS(=O)(=O)CCCn1c([C@@H](Nc2nc(N)nc(N)c2C#N)C2CC2)nc2c(Cl)cc(F)cc2c1=O      7.52
6  C[C@H](Nc1ncnc(N)c1C#N)c1nc2cccc(Cl)c2c(=O)n1CCC(C)(C)N      5.89
7  C[C@H](Nc1nc(N)nc(N)c1C#N)c1nc2cccc(Cl)c2c(=O)n1N(CCN)Cc1ccccc1 [Compound 10]      6.08
